Molecular target: Carbonic anhydrase 1 (Homo sapiens, UniProt P00915)
Sequence (P00915 whole entry): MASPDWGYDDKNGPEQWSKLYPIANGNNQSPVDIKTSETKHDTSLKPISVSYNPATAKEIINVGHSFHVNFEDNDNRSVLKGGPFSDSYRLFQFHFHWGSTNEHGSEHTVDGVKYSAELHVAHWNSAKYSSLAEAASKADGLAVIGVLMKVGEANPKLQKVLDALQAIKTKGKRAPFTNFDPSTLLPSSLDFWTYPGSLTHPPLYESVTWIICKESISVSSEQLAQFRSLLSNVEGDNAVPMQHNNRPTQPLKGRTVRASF
QUANTITY KIND: Ki (nM)
Number only, in nM; omit the unit.

Name the reported Ki value associated with the compound `NS(=O)(=O)c1ccc(S(=O)(=O)Nc2cccc3c(Cl)c[nH]c23)cc1`
97

Name the reported Ki value associated with the compound `NC(=O)c1[nH]c2ccc(S(N)(=O)=O)cc2c1-c1ccccc1`
48

----------
Biological target: UniProt P00918
QUANTITY KIND: pKi
For clarity, pKi is expressed as the negative log10 of concentration in mol/L.

Name the reported pKi value associated with the compound `NC(=O)c1[nH]c2ccc(S(N)(=O)=O)cc2c1-c1ccccc1`
7.51
